The entries below come with measured melting point values attached.
assay metric: melting point

[
  {
    "structure smiles string": "CCOC(=O)C1=C(C)N/C(=C/c2cc(C)n(C3CCN(CCN4CCCCC4)CC3)c2C)C1=O",
    "assay metric": "melting point",
    "experimental value": "122 to 125 °C"
  },
  {
    "structure smiles string": "CCOC(=O)C1=C(C)N/C(=C/c2cc(C)n(C3CCN(Cc4cc(C)on4)CC3)c2C)C1=O",
    "assay metric": "melting point",
    "experimental value": "185 to 188 °C"
  },
  {
    "structure smiles string": "CCOC(=O)C1=C(C)N/C(=C/c2cc(C)n(C3CCN(Cc4ccc(F)cc4C(F)(F)F)CC3)c2C)C1=O",
    "assay metric": "melting point",
    "experimental value": "145 to 148 °C"
  },
  {
    "structure smiles string": "CCOC(=O)C1=C(C)N/C(=C/c2cc(C)n(C3CCN(Cc4cocn4)CC3)c2C)C1=O",
    "assay metric": "melting point",
    "experimental value": "180 to 182 °C"
  },
  {
    "structure smiles string": "CCOC(=O)C1=C(C)N/C(=C/c2cc(C)n(C3CCN(CC4CCCCC4)CC3)c2C)C1=O",
    "assay metric": "melting point",
    "experimental value": "184 to 186 °C"
  },
  {
    "structure smiles string": "CCOC(=O)C1=C(C)N/C(=C/c2cc(C)n(C3CCN(Cc4ncc[nH]4)CC3)c2C)C1=O",
    "assay metric": "melting point",
    "experimental value": "185 to 190 °C"
  }
]

* * *

The entries below come with measured melting point values attached.
assay metric: melting point

[
  {
    "structure smiles string": "CCOC(=O)C1=C(C)N/C(=C/c2cc(C)n(C3CCN(Cc4ccccc4)CC3)c2C)C1=O",
    "experimental value": "150 to 155 °C"
  },
  {
    "structure smiles string": "CCOC(=O)C1=C(C)N/C(=C/c2cc(C)n(C3CCN(Cc4ccc(N5CCOCC5)nc4)CC3)c2C)C1=O",
    "experimental value": "> 280 °C"
  },
  {
    "structure smiles string": "CCCN1CCC(n2c(C)cc(/C=C3/NC(C)=C(C(=O)OCC)C3=O)c2C)CC1",
    "experimental value": "145 to 148 °C"
  },
  {
    "structure smiles string": "CCOC(=O)C1=C(C)N/C(=C/c2cc(C)n(C3CCN(CCN4CCOCC4)CC3)c2C)C1=O",
    "experimental value": "115 to 118 °C"
  },
  {
    "structure smiles string": "CCn1ccc2c(c1=O)C(=O)/C(=C\\c1cc(C)n(-c3ccccc3C(F)(F)F)c1C)N2",
    "experimental value": "204 to 205 °C"
  }
]
